Record form. Attribute: GI50. Fill in for each entry.
# System: SNB-75
# procedure_details: NCI tumour cell line growth inhibition, 48 h
Calls of active or inactive are those of the source. No stated cut-off is given here; in the data, active = GI50 up to about 1.1 µM and inactive = higher.

// solved cases for GI50 follow
C=C1C(=O)OC2CC(C)C(C(O)CC(C)O)=CCC12 (stereo not given) ... 18.3 µM (inactive)
CSc1nc(O)c(C#N)c(-c2ccccc2)n1 ... > 100 µM (inactive)
N=C(Cc1ccccc1)NCC(=O)O ... > 100 µM (inactive)
O=C1C2=C(c3ccccc31)C(c1ccc(Cl)cc1)NC(S)=N2 (stereo not given) ... 15.9 µM (inactive)

Below are 8 compounds. Give each one its GI50.
1. COC(O)C(=O)c1ccc2c(c1)CC1(C2)Cc2cc3c(cc2C1=O)CCC3 (stereo not given)
2. CCOC(CNc1nn2c(C)nnc2s1)OCC
3. CC1(C)N=c2c(ncn2N)=C(C(N)=O)N1
4. CN1C(=O)C(=CNc2ccc(Cl)cc2Cl)C(=O)N(C)C1=O
5. O=C(O)C1CCCCC1c1c2ccc(=O)cc-2oc2cc(O)ccc12 (stereo not given)
6. C[C@H](C/C=C/C(C)(C)O)[C@H]1CC[C@@]2(C)[C@@H]3CC[C@H]4C(C)(C)[C@@H](O)CC[C@@]45C[C@@]35CC[C@]12C
7. COC(=O)c1c(-c2ccccc2)c2sc3ccccc3n2c1N
8. O=C1CCC2(c3ccc(F)cc3)Nc3ncncc3N12 (stereo not given)

Reply:
1. 17.9 µM (inactive)
2. > 100 µM (inactive)
3. > 100 µM (inactive)
4. > 100 µM (inactive)
5. 25.1 µM (inactive)
6. 20.3 µM (inactive)
7. 56.1 µM (inactive)
8. > 10 µM (inactive)

###

# Test system: HT-29
# procedure_details: NCI tumour cell line growth inhibition, 48 h
Active and inactive are the calls of the source. No stated cut-off is given here; in the data, active = GI50 up to about 1.1 µM and inactive = higher.
Use one of these outcomes when replying: active, inactive

Here are 3 compounds together with their reported answers.
CCNC(=O)NNc1ncnc2c1c(-c1ccc(Cl)cc1)cn2-c1ccc(C)cc1 ... inactive
NNC(=O)Nc1nc2ccc(NN)cc2[nH]1 ... inactive
CSc1ccc(/C=C2\N=C(c3ccccc3)N(/N=C/c3cc4cc(C)ccc4nc3Cl)C2=O)cc1 ... inactive

Ask: Tell me the assay call for Cc1c(NC(=O)CSC(=S)N(C)C)c(=O)n(-c2ccccc2)n1C please.
Reply: inactive

Ask: State the result this test recorded for COc1ccc(COC2CC(OC)OC(C)C2OC(=O)c2ccccc2)cc1 (configuration not stated) .
Reply: inactive

Ask: For C[N+](C)(Cc1ccc(NC(=O)CCCC(=O)ON2C(=O)CCC2=O)cc1)c1ccccc1 , what call appears in the results of this test?
Reply: active

Ask: # lookup: test call for Cn1cco/c1=N/c1ccc(Cl)c(Cl)c1
Reply: inactive

###

# Test system: SNB-75
# procedure_details: NCI tumour cell line growth inhibition, 48 h
Calls of active or inactive are those of the source. Rule as the data show it: active = GI50 up to about 1.1 µM and inactive = higher.
Pick from 1 = active, -1 = inactive when you respond.

Cc1cc(S(=O)(=O)n2ccnc2Oc2ccccc2)c(SSc2cc(Cl)c(C)cc2S(=O)(=O)n2ccnc2Oc2ccccc2)cc1Cl ... 1

Ask: Record lookup: outcome of this test for NCCN(CCN)/[N+]([O-])=N/O ?
Reply: -1

Ask: Status in this test for C1CCCN(NC2=NCCO2)CC1 ?
Reply: -1

Ask: Given O=C1CC(c2c[nH]c3ccccc23)C(=O)N1c1ccccc1 (stereo not given) , state the outcome it received in this test.
Reply: -1

Hey, just so you know, these numbers are from ChEMBL document CHEMBL1201862.
